- Experimental details: Rearrangement of O-HMM to HDT (chemical stability)
- Format: physicochemical
- Condition notes: hccl3, HCCl3; 135° C. sealed tube; 20 hr.; read-out: HDT (formed by rearrangement, determined by NMR)
Readout: degraded at 20 h (%)

INSERT INTO results (smiles_text, measurement_units, recorded_result) VALUES
  ('CN(C)Oc1nc(N(C)C)nc(N(C)C)n1', '%', 100);

* * *

- Experimental details: Rearrangement of O-HMM to HDT (chemical stability)
- Format: physicochemical
- Condition notes: hccl3/h+ (m-chlorobenzoic acid), HCCl3/H+ (0.1 equiv. m-chlorobenzoic acid); 135° C. sealed tube; 20 hr.; read-out: HDT (formed by rearrangement, determined by NMR)
Readout: degraded at 20 h (%)

INSERT INTO measurements (compound, recorded_result) VALUES
  ('CN(C)Oc1nc(N(C)C)nc(N(C)C)n1 [O-HMM]', 100);
